Recorded GI50 for the following molecules
Test system: HCT116 cells
Experiment: Measurement of effect of inhibiting cancer cell proliferation (MTT)
Assay type: cell-based
Conditions: Homo sapiens, HCT-116, 48 hours
Provide the reading as a plain figure in µM.

Would you please look over these solved cases?
molecule	assay-metric	numeric-value
CNC(=N)NC(=N)N1CCCCC1.Cl [Example 8, hydrochloride]	GI50	88.6
Cl.N=C(NCCc1ccccc1)NC(=N)N1CCCCC1 [Example 58, hydrochloride]	GI50	43.2

INPUT: What measured GI50 goes with Cl.N=C(NCc1ccc(Cl)c(Cl)c1)NC(=N)N1CCCCC1 [Example 55, hydrochloride] ?
OUTPUT: 10.3

---

assay-metric: melting point

Would you please look over these solved cases?
compound	melting point
CCCCNC(=N)NC(=N)N1CCCCC1.Cl [Example 11]	113 to 114 °C
Cl.N=C(NCc1cccs1)NC(=N)N1CCCCC1 [Example 24]	220 to 221 °C
Cl.N=C(NCc1ccc(Cl)cc1Cl)NC(=N)N1CCCCC1 [Example 53]	240 to 241 °C

INPUT: What measured melting point goes with Cc1ccc(CNC(=N)NC(=N)N2CCCCC2)cc1.Cl [Example 27] ?
OUTPUT: 241 to 243 °C

INPUT: What measured melting point goes with Cl.N=C(NCc1ccc(F)c(C(F)(F)F)c1)NC(=N)N1CCCCC1 [Example 44] ?
OUTPUT: 232 to 235 °C

INPUT: What measured melting point goes with Cl.N=C(NCc1ccc(OC(F)(F)F)c(Cl)c1)NC(=N)N1CCCCC1 [Example 50] ?
OUTPUT: 240 to 241 °C

INPUT: What measured melting point goes with Cl.N=C(NCc1ccc(Cl)c(Cl)c1)NC(=N)N1CCCC1 [Example 54] ?
OUTPUT: 219 to 221 °C

INPUT: What measured melting point goes with Cl.N=C(NC(=N)N1CCCC1)NC1CCCCCC1 [Example 17] ?
OUTPUT: 265 to 266 °C

INPUT: What measured melting point goes with `Cl.N=C(NCc1cccnc1)NC(=N)N1CCCCC1` ?
OUTPUT: 197 to 199 °C

INPUT: What measured melting point goes with Cl.N=C(NCc1ccc(Cl)cc1)NC(=N)N1CCCCCC1 [Example 33] ?
OUTPUT: 222 to 223 °C

---

System: HCT116 cells
Assay: Measurement of effect of inhibiting cancer cell proliferation (MTT)
Type: cell-based
Settings: Homo sapiens, HCT-116, 48 hours
Description: HCT116 cells derived from human colorectal cancer (commercially available from the Korean Cell Line Bank) were used, and the effect of inhibiting cancer cell proliferation of the biguanide derivative was confirmed by measuring the concentration value (cell growth inhibition concentration, GIC50) at which cell growth was inhibited by 50% using a 3-(4,5-dimethylthiazol-2-yl)-2,5-[…] bromide (MTT) reagent. […]
Recorded GI50 for the following compounds

Would you please look over these solved cases?
compound	result
Cl.N=C(NCc1ccco1)NC(=N)N1CCCCC1 [Example 23, hydrochloride]	> 100 µM
COc1ccc(CNC(=N)NC(=N)N2CCCCC2)cc1.Cl [Example 28, hydrochloride]	> 100 µM
Cl.N=C(NC(=N)N1CCCCC1)NC1CCCCC1 [Example 16, hydrochloride]	> 100 µM
Cl.N=C(NCCc1ccccc1)NC(=N)N1CCCC1 [Example 57, hydrochloride]	> 200 µM

Now, please, on to the next compound.
INPUT: What measured GI50 goes with CCCCNC(=N)NC(=N)N1CCCCC1.Cl [Example 11, hydrochloride] ?
OUTPUT: > 100 µM

---

System: HCT116 cells
Assay: Measurement of effect of inhibiting cancer cell proliferation (MTT)
Assay type: cell-based
Conditions: Homo sapiens, HCT-116, 48 hours
Text: HCT116 cells derived from human colorectal cancer (commercially available from the Korean Cell Line Bank) were used, and the effect of inhibiting cancer cell proliferation of the biguanide derivative was confirmed by measuring the concentration value (cell growth inhibition concentration, GIC50) at which cell growth was inhibited by 50% using a 3-(4,5-dimethylthiazol-2-yl)-2,5-[…] bromide (MTT) reagent. […]
Recorded GI50 for the following molecules
Provide the reading as a plain figure in µM.

molecule	subject-of-test	assay-metric	numeric-value
Cl.N=C(NCCc1ccc(Cl)cc1)NC(=N)N1CCCCCC1 [Example 61, hydrochloride]	HCT116 cells	GI50	19.8

INPUT: What measured GI50 goes with Cl.N=C(NCc1cccs1)NC(=N)N1CCCCC1 [Example 24, hydrochloride] ?
OUTPUT: 93.2

INPUT: What measured GI50 goes with Cl.N=C(NCCc1ccc(F)cc1)NC(=N)N1CCCCCC1 [Example 60, hydrochloride] ?
OUTPUT: 22.4

INPUT: What measured GI50 goes with Cl.N=C(NCc1ccc(OC(F)(F)F)cc1)NC(=N)N1CCCCC1 [Example 42, hydrochloride] ?
OUTPUT: 16.2
